Ref: patent US8263590B2

# Test system: Mouse mammary carcinoma 4T1 cells
# assay-summary: Anchorage-independent tumor cell growth assay
# Format: cell-based
# applied-conditions: Mus musculus, 4T1
This section presents compounds with their documented IC50 values.
Write the answer as a number in nM, unit excluded.

CCC(C)NS(=O)(=O)c1ccccc1Nc1nc(Nc2ccc(N3CCN(C)CC3)cc2OC)ncc1Cl (stereo not drawn) ... 190
CCNC(=O)c1ccccc1Nc1nc(Nc2ccc(N3CCC(N4CCCCC4)CC3)cc2OC)ncc1Cl ... 370

stdin: Which IC50 reading was recorded for the compound CNS(=O)(=O)c1ccccc1Nc1nc(Nc2ccc(OC3CCN(C)C3)cc2OC)ncc1Cl (stereo not drawn) ?
stdout: 50

stdin: Which IC50 reading was recorded for the compound CNS(=O)(=O)c1ccccc1Nc1nc(Nc2ccc(OC3CCN(C)C3)cc2OC)ncc1Br (stereo not drawn) ?
stdout: 70
